biological target: furin, P09958; test: furin cleavage Z-score vs untreated control; higher = more cleavage, active = 3.5 or more, inactive = 1 or less, 8 variable residues between constant flanks; conditions: 7.5 min;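 also: purified furin at 1:10 enzyme:substrate in 50 mM HEPES pH 7.5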
Sequence (P09958 whole entry): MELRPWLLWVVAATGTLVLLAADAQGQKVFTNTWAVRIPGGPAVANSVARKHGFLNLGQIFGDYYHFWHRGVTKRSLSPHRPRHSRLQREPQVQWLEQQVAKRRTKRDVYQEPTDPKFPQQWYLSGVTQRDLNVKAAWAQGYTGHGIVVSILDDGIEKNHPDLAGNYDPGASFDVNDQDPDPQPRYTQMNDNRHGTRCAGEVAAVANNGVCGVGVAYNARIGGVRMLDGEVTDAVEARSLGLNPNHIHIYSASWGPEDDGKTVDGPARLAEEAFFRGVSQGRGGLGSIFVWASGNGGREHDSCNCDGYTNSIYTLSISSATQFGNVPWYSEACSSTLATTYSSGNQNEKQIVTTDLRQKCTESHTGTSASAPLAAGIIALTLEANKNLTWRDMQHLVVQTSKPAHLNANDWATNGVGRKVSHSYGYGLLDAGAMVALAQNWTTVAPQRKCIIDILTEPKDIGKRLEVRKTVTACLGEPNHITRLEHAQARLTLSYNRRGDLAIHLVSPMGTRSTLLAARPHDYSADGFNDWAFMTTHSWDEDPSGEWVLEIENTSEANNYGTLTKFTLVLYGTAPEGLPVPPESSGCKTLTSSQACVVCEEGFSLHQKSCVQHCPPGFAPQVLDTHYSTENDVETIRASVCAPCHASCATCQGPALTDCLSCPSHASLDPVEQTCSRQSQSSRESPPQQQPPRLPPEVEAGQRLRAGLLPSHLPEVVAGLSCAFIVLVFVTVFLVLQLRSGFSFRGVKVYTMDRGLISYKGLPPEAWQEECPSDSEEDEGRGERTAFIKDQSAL
Some of the results follow. No count for the full screen is at hand.
Quick rule for you: furin cleavage Z-score at -0.03 or higher means t, lower means f.

> print(dat)
             construct.sequence  class.label
1   CAVVVTSTWVAGNASASA [HC2150]            t
2  CARERRNAIRAGNASASA [FS-3219]            t
3   CALVAEEDERAGNASASA [HC1290]            f
4  CARERRRLMSAGNASASA [FS-2660]            f
5  CARERRGPATAGNASASA [FS-2487]            f
6   CACPRRAKRRAGNASASA [FS-119]            t
7  CARENRSLFTAGNASASA [FS-2009]            t
